These entries and their values trace back to the Deep4Chem optical property database.

experiment: solvent given as SMILES; conditions: in ClC(Cl)Cl

COMPOUND | emission maximum
N#Cc1nc(N(Cc2ccc(I)cc2)Cc2ccc(I)cc2)c(C#N)nc1N(Cc1ccc(I)cc1)Cc1ccc(I)cc1 | 574 nm
CCN(CC)c1ccc2cc(-c3ccc(C(F)(F)F)cc3)oc(=O)c2c1 | 450 nm
CCc1ccc(/C=N/c2cc(C(C)C)c(O)cc2C)cc1 | 415 nm
COC(=O)c1c2ccccc2nc2ccccc12 | 428 nm
CCC1(CC)c2cc(-c3ccc(N(c4ccc(-c5ccc6c(c5)C(CC)(CC)c5cc(N7c8ccccc8C(C)(C)c8ccccc87)ccc5-6)cc4)c4ccc(-c5ccc6c(c5)C(CC)(CC)c5cc(N7c8ccccc8C(C)(C)c8ccccc87)ccc5-6)cc4)cc3)ccc2-c2ccc(N3c4ccccc4C(C)(C)c4ccccc43)cc21 | 431 nm
Cc1cc(C)c(C2=C3C=CC=[N+]3[B-]3(c4ccc5ccc6cccc7ccc4c5c67)Oc4cc(O)cc5c6ccc(C)cc6c6cc2n3c6c45)c(C)c1 (stereo not drawn) | 670 nm
CCOc1ccc2c(-c3nc(-c4ccccc4)no3)cc(=O)oc2c1 | 454 nm
O=C(O)c1ccccc1Nc1cccc(C(F)(F)F)c1 | 426 nm
O=C1CC(c2ccc(Cl)cc2)c2c(c3ccccc3c3nc4ccccc4nc23)O1 (stereo not drawn) | 434 nm
CC(C)(C)c1ccc2oc3nc4oc5ccc(-n6c7ccccc7c7cc(-n8c9ccccc9c9ccccc98)ccc76)cc5c4cc3c2c1 | 446 nm
CCCCN1c2ccccc2Sc2cc(/C=C\c3cc(=O)oc4ccc(C)cc34)ccc21 | 635 nm
CCCN1c2ccccc2Sc2cc(/C=C\c3cc(=O)oc4cc(O)ccc34)ccc21 | 631 nm
CCCCn1c2ccc(-c3cccc(F)c3)cc2c2ccc3c4cc(-c5cccc(F)c5)ccc4n(CCCC)c3c21 | 411 nm
Oc1ccc(/N=C/c2ccccc2Oc2ccccc2)cc1 | 415 nm
Cc1cc(=O)oc2cc3c4ccc(C(C)(C)C)cc4c4cc(C(C)(C)C)ccc4c3cc12 | 423 nm
CN(C)c1ccc(/C=C/c2cc[n+](CCC[n+]3ccc(/C=C/c4ccc(N(C)C)cc4)cc3)cc2)cc1 | 566 nm
C(#Cc1ccc(C#Cc2ccc(C#Cc3ccccc3)cc2)cc1)c1ccccc1 | 387 nm
CCCCCCC(CCCCCC)n1c(=O)c2c3ccc4cccc5c6cccc7ccc(c2c1=O)c(c76)c3c45 | 522 nm
CC1=CC(/C=C/c2ccc(N(C)C)cc2)=[N+]2C1=C(c1ccccc1)c1c(C)cc(/C=C/c3ccc(N(C)C)cc3)n1[B-]2(F)F | 753 nm
CN(CC(O)c1cccc(O)c1)c1ccc([N+](=O)[O-])c(C2CC(c3cccc4ccccc34)=NN2c2ccccc2)c1 (stereo not drawn) | 451 nm
COc1ccc(C2=Cc3c4ccccc4cc[n+]3[B-](F)(F)O2)cc1 | 478.2 nm
C[N+]1=C(/C=C/C2=C3Oc4c(cc5c6c4CCCN6CCC5)C(c4ccccc4C(=O)O)=C3CCC2)C(C)(C)c2c1ccc1ccccc21 | 775 nm
F[B-]1(F)n2c(-c3ccccc3)cc(-c3ccccc3)c2N=C2C(c3ccccc3)=CC(c3ccccc3)=[N+]21 | 672 nm
C#CCn1c2ccccc2c2cc(/C=C/c3cc(C)c4n3[B-](F)(F)[N+]3=C(C)C=C(C)C3=C4c3ccc(I)cc3)ccc21 | 607 nm
CCOC(=O)CCCn1c(C(=O)OC)c(C)c2c(=O)n3c(cc21)C(CC)=C(C)C3=O | 456 nm
COC(=O)C(Cc1ccc2oc(-c3ccc(N(C)C)cc3)nc2c1)NC(=O)OC(C)(C)C (stereo not drawn) | 382 nm
CCCCCCC(CCCCCC)N1C(=O)c2cccc3c(-c4cc(OC)c(OC)c(OC)c4)ccc(c23)C1=O | 525.1 nm
Nc1nc(/C=C/c2ccc(N(c3ccccc3)c3ccccc3)cc2)cc(/C=C/c2ccc(N(c3ccccc3)c3ccccc3)cc2)n1 | 526 nm
Cc1ccc2c3ccc(C)cc3c3cc4c(C)cc(=O)oc4cc3c2c1 | 422 nm
Cc1ccc(/C2=c3\cc/c(o3)=C(\c3ccc(C)cc3)c3ccc([nH]3)-c3ccc4n3[P-](=O)(=O)[N+]3=C(C=CC3=C4c3ccco3)c3ccc2[nH]3)cc1 | 744 nm
CCCCCCCCOc1ccc(-c2c3c4n(c(-c5ccc(OCCCCCCCC)cc5)c3c3n2[B-](F)(F)[n+]2ccccc2N=3)[B-](F)(F)[n+]2ccccc2N=4)cc1 | 661 nm
N#Cc1c(C#N)c2cc(Cl)c(Cl)cc2c2cc(Cl)c(Cl)cc12 | 412 nm
CN(C)CCNCc1c2ccccc2cc2ccccc12 | 417 nm
